# Subject of test: 5-HT2A receptor (Homo sapiens (Human))
# Sequence (P28223 whole entry): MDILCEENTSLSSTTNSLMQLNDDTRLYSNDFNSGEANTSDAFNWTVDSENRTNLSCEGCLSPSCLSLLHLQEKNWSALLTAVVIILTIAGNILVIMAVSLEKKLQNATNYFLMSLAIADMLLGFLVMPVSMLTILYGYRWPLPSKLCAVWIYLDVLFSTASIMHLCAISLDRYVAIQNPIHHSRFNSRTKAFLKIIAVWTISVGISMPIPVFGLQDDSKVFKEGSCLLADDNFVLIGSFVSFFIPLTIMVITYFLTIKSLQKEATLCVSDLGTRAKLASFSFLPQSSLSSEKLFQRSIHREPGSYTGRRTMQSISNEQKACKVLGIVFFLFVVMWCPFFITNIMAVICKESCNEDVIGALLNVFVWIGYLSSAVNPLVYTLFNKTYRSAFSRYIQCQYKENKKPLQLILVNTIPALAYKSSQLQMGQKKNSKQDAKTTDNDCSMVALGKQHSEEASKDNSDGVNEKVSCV
# Experiment description: Radioligand binding ([3H]-ketanserin) to cloned 5-HT2A receptor expressed in HEK-293 EBNA cells
Measurement type: pKi
# reply with the number alone; pKi is -log10 of concentration in mol/L

Look over these answered cases.
- Compound: "CN1CCN(CC(=O)N[C@H]2CC[C@H](CCN3CCN(c4cccc5c4OCO5)CC3)CC2)CC1"
  Measurement type: "pKi"
  Reported measurement: 7.80
- Compound: "CC1(C(=O)N[C@H]2CC[C@H](CCN3CCN(c4cccc5c4OCO5)CC3)CC2)COC1"
  Measurement type: "pKi"
  Reported measurement: 7.81
- Compound: "COC1(C(=O)N[C@H]2CC[C@H](CCN3CCN(c4cccc5c4OCO5)CC3)CC2)CC1"
  Measurement type: "pKi"
  Reported measurement: 8.20
- Compound: "O=C(N[C@H]1CC[C@H](CCN2CCN(c3cccc4c3OCO4)CC2)CC1)C1CC1(F)F (stereo partly shown)"
  Measurement type: "pKi"
  Reported measurement: 7.57

// next item, pKi requested
*Q* Determine its reported pKi: CN(C)S(=O)(=O)N[C@H]1CC[C@H](CCN2CCN(c3cccc4c3OCO4)CC2)CC1
*A* 7.67
